- TESTED TARGET: T1, human TMEM106B (human, UniProt Q9NUM4 2-274)
- T1 construct: Full-length, on transiently transfected HEK293 cells, or natively expressed on HeLa, U251 and A549 cells; also called huTMEM106B; huTMEM
- METHOD NOTES: FACS A549, 10 ug/ml
Outcome: satisfied for MFI of at least 4000; not satisfied for anything lower.

# count of solved cases: 4
BINDER	CLASS
anti-TMEM106B antibody TM-21 (antibody, V domains shown) VH: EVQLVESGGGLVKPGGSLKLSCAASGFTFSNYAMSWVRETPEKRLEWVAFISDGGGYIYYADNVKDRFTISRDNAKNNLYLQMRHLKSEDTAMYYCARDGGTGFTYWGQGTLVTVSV VL: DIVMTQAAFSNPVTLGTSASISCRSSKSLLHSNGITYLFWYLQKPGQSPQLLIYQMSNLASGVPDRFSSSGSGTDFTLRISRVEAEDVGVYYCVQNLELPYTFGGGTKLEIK	satisfied
anti-TMEM106B antibody TM-52 (antibody, V domains shown, mouse IgG from hybridoma) VH: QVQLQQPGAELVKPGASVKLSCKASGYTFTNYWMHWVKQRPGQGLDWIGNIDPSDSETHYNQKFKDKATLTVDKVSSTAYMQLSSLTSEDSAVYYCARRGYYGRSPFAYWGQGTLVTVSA VL: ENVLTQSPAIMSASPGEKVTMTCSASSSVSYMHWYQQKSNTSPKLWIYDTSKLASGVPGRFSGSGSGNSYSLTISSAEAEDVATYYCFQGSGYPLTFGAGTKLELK	not satisfied
anti-TMEM106B antibody TM-49 (antibody, V domains shown, mouse IgG from hybridoma) VH: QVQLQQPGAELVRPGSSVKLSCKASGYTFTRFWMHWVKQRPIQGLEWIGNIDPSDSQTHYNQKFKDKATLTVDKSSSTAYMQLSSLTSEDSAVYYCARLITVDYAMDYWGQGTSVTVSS VL: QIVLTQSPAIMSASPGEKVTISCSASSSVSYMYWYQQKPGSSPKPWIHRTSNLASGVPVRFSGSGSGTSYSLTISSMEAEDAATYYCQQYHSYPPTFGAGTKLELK	not satisfied
anti-TMEM106B antibody TM-32 (antibody, V domains shown) VH: EVQLQQSGAELVRPGASVRLSCIASGFNIKDYYMYWVKQRPEQGLEWIGRIDPEDGDTEYVPKFQGKATMTADTSSNTAYLQLSSLTSEDIGVYYCTTRTWDLYYAVDNWGQGTSVTVSS VL: DVLMTQTPLSLPVSLGDQASISCRSSQNIVHSNGNTYLEWYLQKPGQSPKLLIDKVSNRFSGVPDRFSGSGSGTDFTLKISRVEAEDLGIYYCFQGSHVPFTFGSGTKLEIK	satisfied

Then there is this binder:
Inquiry: Say whether anti-TMEM106B antibody TM-29 (antibody, V domains shown) VH: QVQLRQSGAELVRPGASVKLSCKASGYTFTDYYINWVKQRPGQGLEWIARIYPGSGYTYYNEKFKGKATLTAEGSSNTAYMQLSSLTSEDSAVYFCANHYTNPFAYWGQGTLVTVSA VL: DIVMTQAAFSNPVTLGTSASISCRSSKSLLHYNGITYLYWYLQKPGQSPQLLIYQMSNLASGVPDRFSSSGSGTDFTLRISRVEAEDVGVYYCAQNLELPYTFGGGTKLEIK shows MFI of 4000 or more.
Reply text: satisfied
